Provenance of the data: ChEMBL document CHEMBL1158132

- System: SK-MEL-2
- experimentalDetails: Cytotoxicity against human SK-MEL-2 cells
- Format: functional
- conditionSummary: read-out: ED50 (the source's name)
Below is a list of entries, each paired with its recorded EC50 value.

Need EC50 of CCC(C)/C=C/[C@@H](C)[C@H]1CC[C@@H]2[C@]1(C)CC=C1[C@]23C=C[C@]2(CCCC[C@]12C)OO3 (stereo partly specified) , thanks.
4.6 µg/mL

What EC50 value was documented for this compound, "CC(C)C/C=C/[C@@H](C)[C@H]1CC[C@H]2C3=C(CC[C@]12C)[C@@]1(C)CC[C@H](O)CC1=CC3=O" ?
> 30 µg/mL

Can you look up the measured EC50 of "COc1cccc2c1C(=O)c1c(O)c3c(c(O)c1C2=O)C[C@@](O)(C(=O)CO)C[C@@H]3O[C@H]1C[C@H](N)[C@H](O)[C@H](C)O1" for me?
0.08 µg/mL

What value of EC50 has been reported for the following compound? "CC(C)[C@H](C)/C=C/[C@@H](C)[C@H]1CC[C@H]2C3=C(CC[C@]12C)[C@@]1(C)CC[C@H](O)CC1=CC3=O"
24.5 µg/mL

I'd like to know its EC50. The compound in question is "CC(C)[C@H](C)/C=C/[C@@H](C)[C@H]1CC[C@H]2C3=C(CC[C@]12C)[C@@]1(C)CC[C@H](O)C[C@@]12O[C@H]2[C@H]3O"
11.3 µg/mL

Which EC50 value belongs to "CC(C)[C@@H](C)/C=C/[C@@H](C)[C@H]1CCC2=C3[C@H](O)[C@@H]4O[C@@]45C[C@@H](O)CC[C@]5(C)[C@H]3CC[C@@]21C" ?
> 30 µg/mL
